The reader will find reported DC50 values listed item by item below.
# study.system: And‐1 (Homo sapiens)
# Construct: expressed in transfected cells
# Sequence (O75717 whole entry): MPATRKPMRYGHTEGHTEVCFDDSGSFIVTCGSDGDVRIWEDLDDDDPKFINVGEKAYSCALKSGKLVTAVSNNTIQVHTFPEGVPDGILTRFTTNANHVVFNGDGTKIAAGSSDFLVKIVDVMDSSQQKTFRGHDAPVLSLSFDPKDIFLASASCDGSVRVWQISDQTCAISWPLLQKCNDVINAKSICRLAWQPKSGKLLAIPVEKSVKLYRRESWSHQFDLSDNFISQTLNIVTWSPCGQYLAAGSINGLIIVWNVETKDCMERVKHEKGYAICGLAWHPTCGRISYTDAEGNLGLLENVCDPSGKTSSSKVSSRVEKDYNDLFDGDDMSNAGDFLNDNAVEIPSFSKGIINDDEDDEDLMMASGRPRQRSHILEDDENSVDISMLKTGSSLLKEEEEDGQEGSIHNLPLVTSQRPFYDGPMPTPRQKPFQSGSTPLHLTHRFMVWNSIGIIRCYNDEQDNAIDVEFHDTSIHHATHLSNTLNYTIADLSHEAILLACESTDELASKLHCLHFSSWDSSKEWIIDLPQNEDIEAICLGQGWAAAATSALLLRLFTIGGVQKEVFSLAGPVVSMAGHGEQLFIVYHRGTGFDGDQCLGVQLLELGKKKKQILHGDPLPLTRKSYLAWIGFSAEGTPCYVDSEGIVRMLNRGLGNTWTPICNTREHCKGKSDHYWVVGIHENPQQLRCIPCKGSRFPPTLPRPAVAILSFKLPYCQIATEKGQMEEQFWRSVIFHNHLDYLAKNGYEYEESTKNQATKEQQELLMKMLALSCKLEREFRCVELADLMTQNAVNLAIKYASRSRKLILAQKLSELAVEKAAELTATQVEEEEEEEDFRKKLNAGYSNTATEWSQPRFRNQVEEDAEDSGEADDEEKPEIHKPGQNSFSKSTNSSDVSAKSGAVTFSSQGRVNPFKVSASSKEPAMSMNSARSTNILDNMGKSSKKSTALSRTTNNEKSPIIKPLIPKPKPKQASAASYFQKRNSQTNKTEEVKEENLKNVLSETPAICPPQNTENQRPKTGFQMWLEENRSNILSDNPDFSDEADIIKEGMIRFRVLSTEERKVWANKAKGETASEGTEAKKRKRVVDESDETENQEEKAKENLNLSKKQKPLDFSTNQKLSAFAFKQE
# measurement.description: And‐1 luciferase reporter assay (qHTS of LOPAC)
# Type: cell-based
# experimental.parameters: reduction of luciferase activity, qHTS; average of 1 and 2; read-out: IC50 (uM) average
# Experimental: And‐1‐Luc reporter HEK293 cells were dispensed at 2000 cells/5 μl/well in tissue culture treated white wall/solid bottom 1536‐well plates (Greiner Bio‐One North America, Monroe, NC, USA) using a Thermo Scientific Multidrop Combi (ThermoFisher Scientific, Inc.). […] After 30 min of incubation at room temperature, the luminescence intensity of the assay plates was quantified using a ViewLux plate reader (PerkinElmer, Shelton, CT, USA). […]
Quick reminder: number only, in µM, skip the unit.

Worked set:
C/C=C(/C)C(=O)O[C@H]1C(C)=C2[C@H]([C@@H]1OC(=O)CCCCCCC)[C@@](C)(OC(C)=O)C[C@H](OC(=O)CCC)[C@@]1(O)[C@H]2OC(=O)[C@@]1(C)O: 6.95
Oc1ccc(/C=C/c2cc(O)cc(O)c2)cc1 [Resveratrol, 3,5,4′‐trihydroxy‐trans‐stilbene]: 18.9
CNc1ccc2oc(C[C@H]3O[C@@]4(CC[C@H]3C)O[C@H]([C@H](C)C(=O)c3ccc[nH]3)[C@H](C)C[C@H]4C)nc2c1C(=O)O: 8.32

We next turn to a different compound, shown below.
Give the measured DC50 of COCCOC(=O)C1=C(C)NC(C)=C(C(=O)OC/C=C/c2ccccc2)C1c1cccc([N+](=O)[O-])c1 (stereo not shown) .
21.1
